Biological target: IDO (Homo sapiens)
Sequence (P14902 whole entry): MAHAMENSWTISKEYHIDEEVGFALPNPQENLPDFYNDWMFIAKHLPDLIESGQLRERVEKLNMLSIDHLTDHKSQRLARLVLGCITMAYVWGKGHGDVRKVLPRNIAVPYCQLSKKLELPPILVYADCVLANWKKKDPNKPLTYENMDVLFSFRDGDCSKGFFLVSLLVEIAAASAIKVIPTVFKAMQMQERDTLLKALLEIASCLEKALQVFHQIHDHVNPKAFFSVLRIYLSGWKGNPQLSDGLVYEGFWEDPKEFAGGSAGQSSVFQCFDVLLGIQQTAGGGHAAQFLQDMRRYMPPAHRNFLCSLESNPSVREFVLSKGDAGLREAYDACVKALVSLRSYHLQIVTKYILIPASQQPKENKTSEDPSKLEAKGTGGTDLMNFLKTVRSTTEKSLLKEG
Experiment: LLE_IDO_ABS_DR (IDO assay)
pIC50: −log10 of the molar value.
// map pIC50 onto a label; ranges lower segment: < 7; middle segment: ≥ 7 and < 8; upper segment: ≥ 8

{"columns": ["compound", "class.label"],
 "data": [
  ["CC(C)CN(CC(C)C)c1ccc(-c2ccccc2-c2nnn[nH]2)cc1NC(=O)Nc1cccc(OC(F)(F)F)c1 [Example 273]", "lower segment"],
  ["Cc1ccc(NC(=O)Nc2cc(-c3scnc3C(=O)O)ccc2N(CC(C)C)CC(C)C)cc1 [Example 103]", "lower segment"],
  ["Cc1ccc(NC(=O)Nc2cc(-c3ccccc3-c3nnn[nH]3)ccc2N(CC2CC2)C2CCCCC2)cc1 [Example 82]", "upper segment"],
  ["CC(C)CN(c1ccc(-c2ccc(Cl)cc2C(=O)O)cc1NC(=O)Nc1ccccc1F)C1CCCCC1 [Example 123]", "middle segment"],
  ["CC(C)CN(CC1CC(F)(F)C1)c1ccc(-c2ccccc2-c2nnn[nH]2)cc1NC(=O)Nc1cc(C(C)C)no1 [Example 384]", "lower segment"],
  ["Cc1ccc(NC(=O)Nc2cc(-c3ccccc3-c3nnn[nH]3)ccc2N2CC3CC2CN3Cc2ccccc2)cc1 (stereo not drawn) [Example 317]", "middle segment"],
  ["CCN(c1ccc(-c2ccccc2-c2nnn[nH]2)cc1NC(=O)Nc1ccc(C)cc1)C1CCCC1 [Example 75]", "upper segment"],
  ["Cc1ccc(NC(=O)Nc2cc(-c3ccccc3C(=O)O)ccc2N(C)CC(C)C)cc1 [Example 180]", "lower segment"]
]}
